The values you see were collected from the supplement of paper PMC11060735.

- System: mouse p16Ink4a+/- lung fibroblasts (INKBRITE, bleomycin-injured)
- TEST_DESCRIPTION: GFP- (p16Ink4a-) cell count relative to negative-control wells (fold of vehicle); higher = more p16Ink4a- cells surviving
- MEASUREMENT_SETUP: 1 µM; 3 days
Whole data set: some 1,800 compounds, median “GFP- (p16Ink4a-) cell count relative to negative-control wells” near 0.99, cut for the lowest 2% near 0.5. Many of the other results were omitted from the sample, so the lowest values are more common in it than they were.
MEASURE_NAME: GFP-

Sample answers from the record:
>  <MOLECULE>
CC(C)[C@]12O[C@H]1[C@@H]1O[C@]13[C@]1(O[C@H]1C[C@H]1C4=C(CC[C@@]13C)C(=O)OC4)[C@@H]2O [Triptolide]

>  <REPORTED_MEASUREMENT>
0.366

$$$$
>  <MOLECULE>
O=C(O)CNC(=O)c1c(O)c2ccccc2n(Cc2ccccc2)c1=O

>  <REPORTED_MEASUREMENT>
1.07

$$$$
>  <MOLECULE>
C=C1C[C@@H]2[C@H](CC[C@]3(C)C(=O)CC[C@@H]23)[C@@]2(C)C=CC(=O)C=C12 [Exemestane]

>  <REPORTED_MEASUREMENT>
1.13

$$$$
>  <MOLECULE>
C[C@H]1CNCCc2ccc(Cl)cc21 [Lorcaserin]

>  <REPORTED_MEASUREMENT>
1.02

$$$$
>  <MOLECULE>
CCN(CC)C(=O)c1ccc(C2=CC3(CCNCC3)Oc3cccc(O)c32)cc1

>  <REPORTED_MEASUREMENT>
0.95

$$$$

Field: GFP- (mouse p16Ink4a+/- lung fibroblasts (INKBRITE, bleomycin-injured)). Entry: Cc1ccc(-n2nccn2)c(C(=O)N2CCN(c3nc4cc(Cl)ccc4o3)CC[C@H]2C)c1 [Suvorexant]
1.13

Next molecule up: "Oc1nc2ccc(Cl)cc2c(N[C@@H]2CN3CCC2CC3)c1-c1nc2ccccc2[nH]1"
0.944

Next molecule up: C[C@H]1CCC/C=C/[C@@H]2C[C@H](O)C[C@H]2[C@H](O)/C=C/C(=O)O1 [Brefeldin A]
0.4
